EXPERIMENTAL SYSTEM: T1, RHPN1, Q8TCX5
T1 sequence (Q8TCX5 508-602, limits assumed, looked up): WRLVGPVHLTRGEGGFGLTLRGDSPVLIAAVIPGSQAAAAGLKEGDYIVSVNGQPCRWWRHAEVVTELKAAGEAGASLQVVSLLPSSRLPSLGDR
PROCEDURE DETAILS: holdup assay
Parameters: key: below the threshold = too weak to quantify, mostly under pKd 3.1 to 4
ASSAY CONDITIONS: plain residues with an end cap or a label only (N-terminal biotin on a linker: ado-ado)
binders and their reported pKd
Response field accepts a number only; no unit should be typed.

Sample answers from the record:
- BINDER: "KKMPSIESDV [GRIN2A, Q12879]"
  pKd: 3.83
- BINDER: "PPYRHRNTVV [ERBB4, Q15303]"
  pKd: 3.6
- BINDER: "LPHGHSTTRV [NLGN4X, Q8N0W4]"
  pKd: 4.04
- BINDER: "EVEEFPETSV [TRPV3, Q8NET8]"
  pKd: 4.68
- BINDER: "TASPAKETSF [SLC2A7, Q6PXP3]"
  pKd: 3.97
- BINDER: "SKENVQETQI [LRRC4B, Q9NT99]"
  pKd: 5.1
- BINDER: "QGPVETESVV [SLC45A4, Q5BKX6]"
  pKd: 4.47
- BINDER: "VNKSKLLTDV [KCNA1, Q09470]"
  pKd: 3.96
- BINDER: "EALLQMESVA [CAVIN3, Q969G5]"
  pKd: 3.69
- BINDER: "TACCHSETVV [TGFA, P01135]"
  pKd: 4.24

**Q:** Please list pKd recorded for the binder MLSKQSESAI [FLVCR1, Q9Y5Y0]
**A:** 4.01

**Q:** Please list pKd recorded for the binder RRISSLESEV [GRIN2C, Q14957]
**A:** 4.66

**Q:** Please list pKd recorded for the binder SAAKVLTSMC [GHRHR, Q02643]
**A:** 4.06

**Q:** Please list pKd recorded for the binder QSARLWETSI [ADAM22, Q9P0K1]
**A:** 4.57

**Q:** Please list pKd recorded for the binder SAKVRTVTSV [RASL11B, Q9BPW5]
**A:** 3.83

**Q:** Please list pKd recorded for the binder QGLAERISVL [PRKD2, Q9BZL6]
**A:** 4.62

**Q:** Please list pKd recorded for the binder TSQESEDTYL [TBC1D10A, Q9BXI6]
**A:** 4.45
